test: photoluminescence quantum yield (fraction); solvent given as SMILES; conditions: in CC(C)=O
measured-parameter: photoluminescence quantum yield

structure-as-smiles	result-value
CCN(CC)c1ccc2cc(/C=C/C(O)=C/C(C)=O)c(=O)oc2c1	0.46
CCCCCN(c1ccccc1)c1ccc2c(c1)C(CC)(CC)c1cc(/C=C/c3ccc(/C=C(\C#N)C(=O)O)s3)ccc1-2	0.223
CN(C)CCN(Cc1c2ccccc2cc2ccccc12)c1ccc([N+](=O)[O-])cc1[N+](=O)[O-]	0.0043
CCC1=C(C)C2=Cc3cccn3[B-](F)(F)[N+]2=C1C	0.65
Nc1ccc2c3c(cccc13)C(=O)c1ccccc1-2	0.11
